biological target: Luciferin 4-monooxygenase (Photinus pyralis) (UniProt P08659); test: qHTS of Nrf2 Activators: Hit Validation in Secondary FLuc Assay; details: firefly luciferase inhibition counter-screen, luminescence; series mostly up to 57.5 µM; also: nearly all actives have a fitted effect of over 65% in size
The campaign covered roughly 1,100 compounds. About 390 (35%) were called active. Not shown: some 30% with an inconclusive outcome. Calls follow the shape of the dose curve; as a rule, active = well fitted inhibition curve with a large enough effect; inconclusive = small, poorly fitted or top-dose-only effect; inactive = flat fitted curve, though single readings scatter. Some of the results follow.
Outcomes: Yes for active, No for inactive

{"compound": "O=C(/C=C/c1ccc(-c2ccccc2[N+](=O)[O-])o1)c1ccccc1", "assigned.class": "Yes"}
{"compound": "Cc1cc(=O)oc2cc(NC(=O)c3ccccc3Cl)ccc12", "assigned.class": "Yes"}
{"compound": "O=C(Nc1nnc(-c2cccs2)s1)c1cccc(F)c1", "assigned.class": "Yes"}
{"compound": "COC(=O)c1sccc1NC(=O)c1cccc(F)c1", "assigned.class": "No"}
{"compound": "CCCn1nc([N+](=O)[O-])c(C(C#N)c2nc3ccccc3s2)c(Cl)c1=O (stereo unspecified)", "assigned.class": "Yes"}
{"compound": "O=C(/C=C/c1ccc(-c2ccccc2[N+](=O)[O-])o1)c1ccc(Br)cc1", "assigned.class": "Yes"}
{"compound": "O=C(Nc1nnc(-c2cccs2)s1)C1CC1", "assigned.class": "No"}
{"compound": "COc1ccc(C2NC(=S)NC3=C2CCCC3=C2SCCS2)cc1 (stereo unspecified)", "assigned.class": "No"}
{"compound": "Cn1c(=O)oc2cc(NC(=O)CCl)ccc21", "assigned.class": "No"}
{"compound": "Cc1ccc(-c2nc(C=Nc3ccc(O)cc3)c(O)o2)cc1", "assigned.class": "Yes"}
{"compound": "Cc1ccc(Sc2cnn(-c3ccccc3)c(=O)c2Cl)cc1", "assigned.class": "No"}

---

target: Luciferin 4-monooxygenase (Photinus pyralis) (UniProt P08659); test: qHTS of Nrf2 Activators: Hit Validation in Secondary FLuc Assay; conditions: firefly luciferase inhibition counter-screen, luminescence; series mostly up to 57.5 µM; also: nearly all actives have a fitted effect of over 65% in size
About 390 (35%) of roughly 1,100 compounds were called active. About 30% were inconclusive and are not listed. The call rests on the fitted dose curve; in most records, active means well fitted inhibition curve with a large enough effect; inconclusive means small, poorly fitted or top-dose-only effect; inactive means flat fitted curve, though single readings scatter. The list shows a part of the results.
Outcomes: yes (active), no (inactive)

{"compound": "CS(=O)(=O)c1nc(S(=O)(=O)c2ccc(Cl)cc2)c(N2CCN(CCO)CC2)s1", "assigned.class": "no"}
{"compound": "CCN(CC)CCNC(=O)C(Cl)=C1C(Cl)=C(Cl)C(Cl)=C1Cl", "assigned.class": "no"}
{"compound": "O=C(Nc1ccccn1)c1csc2c1CCCC2", "assigned.class": "yes"}
{"compound": "O=Cc1c(Sc2ccccn2)nc2ccccn2c1=O", "assigned.class": "no"}
{"compound": "O=C(c1ccc([N+](=O)[O-])o1)N1CCN(c2nc3c(Cl)cccc3s2)CC1", "assigned.class": "no"}
{"compound": "COc1ccc([N+](=O)[O-])cc1C1NN=C(c2ccccc2O)S1 (stereo unspecified)", "assigned.class": "yes"}
{"compound": "COc1ccc([N+](=O)[O-])cc1NC(=O)c1ccco1", "assigned.class": "no"}
{"compound": "Cn1c(=O)c(C(=O)NNC(=O)c2ccccc2F)c(O)c2ccccc21", "assigned.class": "no"}
{"compound": "O=C1S/C(=C\\C=C\\c2ccco2)C(=O)N1c1ccc(O)cc1", "assigned.class": "yes"}
{"compound": "COc1ccc(Sc2cnn(-c3ccccc3)c(=O)c2Cl)cc1", "assigned.class": "no"}
{"compound": "Cc1ccc2[nH]c(=O)c3cc(C(=O)N(C)Cc4ccco4)sc3c2c1", "assigned.class": "yes"}

---

target: Luciferin 4-monooxygenase (Photinus pyralis) (UniProt P08659); assay: qHTS of Nrf2 Activators: Hit Validation in Secondary FLuc Assay; details: firefly luciferase inhibition counter-screen, luminescence; series mostly up to 57.5 µM; also: nearly all actives have a fitted effect of over 65% in size; also: potency is read from the fitted curve at half-maximal effect
Out of some 1,100 compounds screened, about 390 (35%) were called active. Not shown: some 30% with an inconclusive outcome. The list shows a part of the results.

{"molecule": "COc1ccccc1NC(=O)c1nc(S(=O)(=O)Cc2ccccc2)ncc1Cl", "tgt": "Luciferin 4-monooxygenase (Photinus pyralis) (UniProt P08659)", "Potency": "2.69 µM (active)"}
{"molecule": "C[C@H]1CCC[C@]2(C)C[C@H]3OC(=O)C(CN4CCCCCC4)[C@H]3C=C12 (some centres not stated)", "tgt": "Luciferin 4-monooxygenase (Photinus pyralis) (UniProt P08659)", "Potency": "inactive"}
{"molecule": "Cc1nn2c(-c3ccco3)nnc2c2ccccc12", "tgt": "Luciferin 4-monooxygenase (Photinus pyralis) (UniProt P08659)", "Potency": "16.9 µM (active)"}
{"molecule": "Oc1ccc2ccccc2c1/C=C/c1ccc2c(Br)cc(Br)c(O)c2n1", "tgt": "Luciferin 4-monooxygenase (Photinus pyralis) (UniProt P08659)", "Potency": "10.7 µM (active)"}
{"molecule": "COC(=O)CSc1nc2ccccn2c(=O)c1C=O", "tgt": "Luciferin 4-monooxygenase (Photinus pyralis) (UniProt P08659)", "Potency": "inactive"}
{"molecule": "Nc1ccccc1C=C1Cc2ccccc2C1=O", "tgt": "Luciferin 4-monooxygenase (Photinus pyralis) (UniProt P08659)", "Potency": "0.426 µM (active)"}
{"molecule": "O=[N+]([O-])c1ccccc1/C=C/C=N/n1c(-c2ccco2)n[nH]c1=S", "tgt": "Luciferin 4-monooxygenase (Photinus pyralis) (UniProt P08659)", "Potency": "7.57 µM (active)"}
{"molecule": "CCc1nn2c(-c3ccco3)ccnc2c1-c1ccccc1", "tgt": "Luciferin 4-monooxygenase (Photinus pyralis) (UniProt P08659)", "Potency": "inactive"}
{"molecule": "O=C1C(=Cc2cccc(Cl)c2)Cc2ccccc21", "tgt": "Luciferin 4-monooxygenase (Photinus pyralis) (UniProt P08659)", "Potency": "1.07 µM (active)"}
{"molecule": "CC(/C=C(\\NC(=O)c1ccccc1)C(=O)N=Nc1c(O)[nH]c2ccc(C)cc12)=C\\c1ccccc1", "tgt": "Luciferin 4-monooxygenase (Photinus pyralis) (UniProt P08659)", "Potency": "inactive"}
{"molecule": "Cc1nn2c(-c3ccccc3)nnc2c2ccccc12", "tgt": "Luciferin 4-monooxygenase (Photinus pyralis) (UniProt P08659)", "Potency": "10.7 µM (active)"}
{"molecule": "Fc1ccc2cc(-c3ccsc3)ncc2c1", "tgt": "Luciferin 4-monooxygenase (Photinus pyralis) (UniProt P08659)", "Potency": "1.69 µM (active)"}

---

target: Luciferin 4-monooxygenase (Photinus pyralis); assay: qHTS of Nrf2 Activators: Hit Validation in Secondary FLuc Assay; details: firefly luciferase inhibition counter-screen, luminescence; series mostly up to 57.5 µM; also: nearly all actives have a fitted effect of over 65% in size
Hit rate of the full screen: of about 1,100 compounds, about 390 (35%) were called active. Another 30% or so got no clear call; they are omitted. Calls come from the whole dose curve; as a rule, active = well fitted inhibition curve with a large enough effect; inconclusive = small, poorly fitted or top-dose-only effect; inactive = flat fitted curve, though single readings scatter. Some of the results follow.
Outcomes: active, inactive

{"molecule": "Cc1ccc(NC(=O)c2ccc([N+](=O)[O-])s2)cc1S(=O)(=O)N1CCOCC1", "assigned.class": "inactive"}
{"molecule": "COc1cc(NC(=S)Nc2ccccn2)c(OC)cc1Cl", "assigned.class": "inactive"}
{"molecule": "Cc1nc2nc(-c3ccccc3)nn2c(C)c1Cl", "assigned.class": "active"}
{"molecule": "CCC1C/C(=C/c2cccs2)C(=O)/C(=C/c2cccs2)C1 (centres undefined)", "assigned.class": "inactive"}
{"molecule": "CCOc1ccccc1NS(=O)(=O)c1c(C(=O)OC)sc2cccc(F)c12", "assigned.class": "inactive"}
{"molecule": "COc1ccc(NC(=O)c2cc(-c3cccs3)on2)c(OC)c1", "assigned.class": "inactive"}
{"molecule": "O=C(O)c1ccc(-n2ncc(Cl)c(Cl)c2=O)cc1", "assigned.class": "inactive"}
{"molecule": "Brc1ccccc1C1N=C(c2ccccc2)NO1 (centres undefined)", "assigned.class": "active"}
{"molecule": "CSc1ccccc1NC(=O)c1cc(-c2cccs2)on1", "assigned.class": "active"}
{"molecule": "O=C(/C=C/c1ccco1)Nc1ccc2nn(-c3ccccc3)nc2c1", "assigned.class": "active"}
{"molecule": "COC(=O)c1sccc1NC(=O)c1cc(C)on1", "assigned.class": "inactive"}
{"molecule": "O=[N+]([O-])c1ccc(/C=[N+](\\[O-])[C@@H]2CCCC[C@@H]2/[N+]([O-])=C/c2ccc([N+](=O)[O-])o2)o1", "assigned.class": "inactive"}
{"molecule": "O=c1c(Cl)c(N/N=C/c2ccc(Cl)cc2)cnn1-c1ccccc1", "assigned.class": "active"}
{"molecule": "Cc1cc(C)c(C#N)c(OCC(=O)c2ccc(Br)cc2)n1", "assigned.class": "inactive"}
{"molecule": "Cc1csc(-c2ccc3cc(Cl)cc(Cl)c3n2)n1", "assigned.class": "active"}
{"molecule": "COc1ccccc1NC(=O)C(=O)Nc1ccccn1", "assigned.class": "active"}
{"molecule": "Cc1ccc2nc(/C(C#N)=C\\c3ccc([N+](=O)[O-])o3)[nH]c2c1", "assigned.class": "active"}
{"molecule": "O=C(CSc1nccc(-c2cccs2)n1)Nc1cccc(Cl)c1Cl", "assigned.class": "inactive"}
{"molecule": "c1ccc(N=NC2=NN(c3ccccc3)CS2)cc1", "assigned.class": "active"}
{"molecule": "Cc1ccnc(SCC(=O)c2ccc(Br)cc2)c1C#N", "assigned.class": "active"}
{"molecule": "Cc1ccc(Cc2c(-c3ccco3)nc3c(C)cc(Br)cn23)cc1", "assigned.class": "active"}
{"molecule": "COc1ccccc1NC(=O)c1cc(Cl)nc2ccccc12", "assigned.class": "inactive"}
{"molecule": "O=C(N/N=C/C=C/c1ccco1)c1cccc([N+](=O)[O-])c1", "assigned.class": "inactive"}
{"molecule": "Oc1ccc(Cl)cc1-c1cc(-c2ccco2)[nH]n1", "assigned.class": "active"}
